B1: DLC1 (parent)
chain: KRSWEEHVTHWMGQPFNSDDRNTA

Variants of: B1
Assay: protein stability index of a GFP-peptide fusion (GPS, HEK-293T) (PSI 1-6); higher = more stable;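 also: lentivirally expressed fusions sorted by FACS into six bins by GFP to DsRed ratio, PSI derived from sequencing read proportions per bin multiplied by bin number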
Settings: c terminus: a fixed tail appended
# label = y if protein stability index >= 3 else n

sequenceInput: KRSWEEHVTHYMGQPFNSDDRNTA
labelValue: n
//
sequenceInput: KRSWEEHVTHWMGQPFNSDMRNTA
labelValue: n
//
sequenceInput: KRSWEEHVTHWMGQPFNSDDRNYA
labelValue: n
//
sequenceInput: KRSWEEHVTHWMGQPFNSDNRNTA
labelValue: n
//
sequenceInput: KRSWEEHVTHWMGQPFNSDDRNWA
labelValue: n
//
sequenceInput: KRSWEEHVTHDMGQPFNSDDRNTA
labelValue: n
//
sequenceInput: KRSWEEHVTHWMGQPFFSDDRNTA
labelValue: n
//
sequenceInput: KRSWEEHVTHWMGQPFYSDDRNTA
labelValue: n
//
sequenceInput: KRSPEEHVTHWMGQPFNSDDRNTA
labelValue: y
//
sequenceInput: KRSWEEHVTHWMGTPFNSDDRNTA
labelValue: n
//
sequenceInput: IRSWEEHVTHWMGQPFNSDDRNTA
labelValue: n
//
sequenceInput: KRSWEEHVTHWMGQCFNSDDRNTA
labelValue: n
//
sequenceInput: KRSWEEHVTHWMGQPFNSDDRETA
labelValue: n
//
sequenceInput: KRSNEEHVTHWMGQPFNSDDRNTA
labelValue: y
//
sequenceInput: KRSWEEHVTHWMGQPFNSDVRNTA
labelValue: n
//
sequenceInput: KRSWEEHVTHWMGEPFNSDDRNTA
labelValue: n
//
sequenceInput: KRSWEEHVTHWMGKPFNSDDRNTA
labelValue: n
//
sequenceInput: KRSWEEHVHHWMGQPFNSDDRNTA
labelValue: y
//
sequenceInput: KNSWEEHVTHWMGQPFNSDDRNTA
labelValue: y
//
sequenceInput: YRSWEEHVTHWMGQPFNSDDRNTA
labelValue: n
